The reported measurements were obtained from ChEMBL document CHEMBL1201862.

Test system: OVCAR-5
Test: NCI tumour cell line growth inhibition, 48 h
The source made the active and inactive calls. Rule as the data show it: active = GI50 up to about 1.1 µM and inactive = higher.
Recorded GI50 values for a group of compounds are listed next.

> print(dat)
                                   compound  target.desc  measured.property       value.observed
1  CC1(O)CC23CC1CCC2(C)C12CCCC(C)(C(=O)O1)C2CC3O (stereo unspecified)      OVCAR-5               GI50  > 100 µM (inactive)
2  CCOC(=O)[C@H](CO)NC1=C(Cl)C(=O)c2c(O)ccc(O)c2C1=O      OVCAR-5               GI50   > 10 µM (inactive)
3  COc1ccc(N2C(=O)[C@H]3[C@H]4CC(C(C)(C)C)CC[C@H]4c4c(n(C)c5ccccc45)[C@H]3C2=O)cc1 (stereo partly specified)      OVCAR-5               GI50   > 10 µM (inactive)
4  COC(=O)CCC(C)C1CCC2C3CCC4CC5CCC4(C)C3(O5)C(Br)C(Br)C12C (stereo unspecified)      OVCAR-5               GI50  > 100 µM (inactive)

Answer with the recorded GI50 of COc1ccc(Cc2c(-c3ccc(C)cc3)n[nH]c(=O)c2C2C(=O)N(c3ccccc3)N=C2c2ccccc2)cc1 (stereo unspecified) only.
33 µM (inactive)

Answer with the recorded GI50 of CCOC(=O)c1c(SC(=O)c2ccc(OC)cc2)n(-c2ccccc2)c(=S)n(-c2ccccc2)c1=O only.
> 100 µM (inactive)

Answer with the recorded GI50 of CC1(C)O[C@@H]([C@@H](O)[C@H](O)C2SCCCS2)[C@@H](CO)O1 only.
> 100 µM (inactive)

Answer with the recorded GI50 of NC(CCCCCCCCCCP(=O)(O)O)C(=O)O (stereo unspecified) only.
> 100 µM (inactive)

Answer with the recorded GI50 of COC(=O)[C@@H]1C=C[C@H](NC(C)=O)C1 only.
> 100 µM (inactive)

Answer with the recorded GI50 of Oc1c(CNCCCN2CCCC2)cc(Cl)c2cccnc12 only.
2.52 µM (inactive)

Answer with the recorded GI50 of CC1=C(C)[C@@]2(C)O[C@@]2(C)O[C@@]2(C)O[C@@]12C only.
> 100 µM (inactive)

Answer with the recorded GI50 of CC(C)NC(=O)CN1CCN(C2=C(Cl)C(=O)c3c(O)ccc(O)c3C2=O)CC1 only.
2.92 µM (inactive)

Answer with the recorded GI50 of CN1CCC2(CC1)SSC1(CCN(C)CC1)S2 only.
> 100 µM (inactive)

Answer with the recorded GI50 of Cc1cc(C)nc(NS(=O)(=O)c2ccc(Nc3c4ccccc4nc4c(C(=O)N5CCN(CCOS(C)(=O)=O)CC5)cccc34)cc2)n1 only.
> 100 µM (inactive)

Answer with the recorded GI50 of O=C1C=Cc2c1csc2Br only.
> 100 µM (inactive)

Answer with the recorded GI50 of Cc1c2c3cc(O)ccc3nc-2n(C)c2ccccc12 only.
3.3 µM (inactive)

----------
System: SF-295
Experiment: NCI tumour cell line growth inhibition, 48 h
The source made the active and inactive calls. Cut-off read from the data, not from the text of the source: active = GI50 up to about 1.1 µM and inactive = higher.
measured-property: GI50

compound	target-desc	GI50
O=C(N/N=C/c1ccccc1O)c1ccccc1Nc1ccccc1C(=O)N/N=C/c1ccccc1O	SF-295	0.975 µM (active)
CN[C@@H](Cc1cccc2ccccc12)C(=O)N[C@@H](CC(C)C)B(O)O	SF-295	< 0.01 µM (active)
N#CCCn1c(S)nnc1CCC(=O)Nc1ccc(Cl)cc1Cl	SF-295	> 100 µM (inactive)
COc1ccc(N2C(=O)[C@H]3[C@H]4CC(C(C)(C)C)CC[C@H]4c4c(n(C)c5ccccc45)[C@H]3C2=O)cc1 (stereo partly specified)	SF-295	> 100 µM (inactive)

Answer with the recorded GI50 of COc1cc2c(cc1OC)[C@H]1C(=O)c3cc4c(cc3[C@H]1N(C)C2=O)OCO4 only.
2.35 µM (inactive)

Answer with the recorded GI50 of C=C(C)[C@H]1[C@@H]2OC(=O)[C@H]1[C@]1(O)C[C@H]3OC34C(=O)O[C@H]2[C@@]41C.CC(C)(O)[C@H]1[C@@H]2OC(=O)[C@H]1[C@]1(O)C[C@H]3OC34C(=O)O[C@H]2[C@@]41C (stereo partly specified) only.
> 100 µM (inactive)

----------
Test system: SK-OV-3
Assay: NCI tumour cell line growth inhibition, 48 h
The source made the active and inactive calls. Cut-off read from the data, not from the text of the source: active = GI50 up to about 1.1 µM and inactive = higher.
I would appreciate it if you answered using one of these outcomes: TRUE (active), FALSE (inactive)

As a guide, the following entries are already answered.
> print(dat)
                                   compound  classification
1  Cc1cc(C23OC4COC(C)(C)OC4C2OC(C)(C)O3)nc2ccccc12 (stereo unspecified)           FALSE
2  CCCCCCCCCCC(O)C1CCC(C2CCC(C(O)CCCCC(O)CCCCCC(O)CC3=CC(C)OC3=O)O2)O1 (stereo unspecified)           FALSE
3  CNC(=O)OCc1nc(SC2CCCCO2)n(C)c1COC(=O)NC (stereo unspecified)           FALSE
4   Nc1ccc2nc(-c3cccc(C(F)(F)F)c3)cc(O)c2c1           FALSE
5      O=NN(CCCl)C(=O)NC1CCCCC1 [LOMUSTINE]           FALSE

In this assay, the call recorded for CCOC(=O)CSc1[nH]c(NC(=S)Nc2ccccc2)c(C(N)=O)c1C(N)=O was what?
FALSE

In this assay, the call recorded for COC(=O)/C=C/c1cc(O)c2c(c1)[C@H](C(=O)OC)[C@@H](c1ccc(O)c(O)c1)O2 was what?
TRUE

In this assay, the call recorded for CCCCCC(=O)Nc1nc(O)c2[nH]cnc2n1 was what?
FALSE

In this assay, the call recorded for COc1ccc(O)c(C(=O)CCC(=O)O)c1 was what?
FALSE

In this assay, the call recorded for COc1cc(C=O)c(-c2c(C=O)ccc3c2OCO3)c(OC)c1OC was what?
FALSE

In this assay, the call recorded for Cc1ccc(/N=C2N=C(Cl)/C(=C\c3ccccc3)N\2)cc1 was what?
FALSE

----------
Test system: HCT-116
Assay: NCI tumour cell line growth inhibition, 48 h
The source made the active and inactive calls. Rule as the data show it: active = GI50 up to about 1.1 µM and inactive = higher.
I would appreciate it if you answered using one of these outcomes: 1.0 (active), 0.0 (inactive)

As a guide, the following entries are already answered.
molecule	target-desc	classification
COc1cc(/C=C/C(=O)c2ccc(NS(=O)(=O)c3cc([N+](=O)[O-])ccc3C)cc2)cc(OC)c1OC	HCT-116	0.0
Oc1ccc(/C=N/NC(=S)Nc2cccnc2)nc1	HCT-116	0.0
CN1C(=O)N(C)C2(O)c3ccccc3C(=O)C12O (stereo unspecified)	HCT-116	0.0

Next, consider the following molecule.
In this assay, the call recorded for COc1cccc2c1C(=O)c1c(O)c3c(c(O)c1C2=O)C[C@@](O)(C(=O)CO)C[C@@H]3OC1CC(N2CCOCC2)C(O)C(C)O1 (stereo partly specified) was what?
1.0

----------
Test system: SN12C
Test: NCI tumour cell line growth inhibition, 48 h
The source made the active and inactive calls. Cut-off read from the data, not from the text of the source: active = GI50 up to about 1.1 µM and inactive = higher.
measured-property: GI50

> print(dat)
                                   molecule       value.observed
1  O=C(Nc1ccc(Br)cc1)C(=O)C(C(=O)c1ccccc1F)C1OC(=O)c2ccccc21 (centres undefined)   27.9 µM (inactive)
2         CC(C)N1CC2CN(Cc3ccccc3)CC(C1)C2=O  > 100 µM (inactive)
3     N#CCCn1c(S)nnc1CCC(=O)Nc1ccc(Cl)cc1Cl  > 100 µM (inactive)

// switching to the query molecule
Answer with the recorded GI50 of COc1cccc(/C=C2\N=C(Cl)OC2=O)c1O only.
> 100 µM (inactive)

----------
System: HOP-62
Test: NCI tumour cell line growth inhibition, 48 h
Activity calls are given as the source filed them. No stated cut-off is given here; in the data, active = GI50 up to about 1.1 µM and inactive = higher.
Recorded GI50 values for a group of compounds are listed next.

See these solved cases before continuing.
> print(dat)
                                   compound  measured.property       value.observed
1      O=NN(CCCl)C(=O)NC1CCCCC1 [LOMUSTINE]               GI50   61.7 µM (inactive)
2  COc1cccc(N(CN2C(=O)CCC2C(=O)O)C(C)=O)c1 (stereo unspecified)               GI50  > 100 µM (inactive)

Answer with the recorded GI50 of CCOC(=O)c1c(SC(=O)c2ccc(OC)cc2)n(-c2ccccc2)c(=S)n(-c2ccccc2)c1=O only.
> 100 µM (inactive)

----------
Test system: NCI-H23
Assay: NCI tumour cell line growth inhibition, 48 h
Active and inactive are the calls of the source. No stated cut-off is given here; in the data, active = GI50 up to about 1.1 µM and inactive = higher.
Recorded GI50 values for a group of compounds are listed next.

See these solved cases before continuing.
> print(dat)
                                   compound       value.observed
1  CCN1CCC(O)(c2ccc(C)cc2)C(C(=O)c2ccc(C)cc2)C1 (centres undefined)   > 40 µM (inactive)
2  O=C(Nc1ccccc1)c1cc2ccccc2c(/N=N\c2cccc([N+](=O)[O-])c2)c1O  > 100 µM (inactive)
3  NC(CCCCCCCCCCP(=O)(O)O)C(=O)O (centres undefined)  > 100 µM (inactive)
4                O=c1oc(=O)c2oc3ccccc3oc1=2  > 100 µM (inactive)
5            O=c1[nH]c2ccccc2c2nc3ccccc3n12   42.5 µM (inactive)
6  Nc1ccc(C(=O)NN2C(=O)C(Cl)C2c2cc(Br)cc(Br)c2O)cc1 (centres undefined)   12.4 µM (inactive)
7                       COI1NC(=O)c2ccccc21  > 100 µM (inactive)
8  CCCCn1c2c(n(CCCC)c1=S)-c1c(n(CCCC)c(=S)n1CCCC)S[Se][Se]S2   13.2 µM (inactive)

Answer with the recorded GI50 of COc1ccc(N2C(=O)[C@H]3[C@H]4CC(C(C)(C)C)CC[C@H]4c4c(n(C)c5ccccc45)[C@H]3C2=O)cc1 (some centres undefined) only.
> 100 µM (inactive)
